Target: β-secretase(BACE) (Homo sapiens)
Construct: purchased Panvera
Sequence (P56817 46-501): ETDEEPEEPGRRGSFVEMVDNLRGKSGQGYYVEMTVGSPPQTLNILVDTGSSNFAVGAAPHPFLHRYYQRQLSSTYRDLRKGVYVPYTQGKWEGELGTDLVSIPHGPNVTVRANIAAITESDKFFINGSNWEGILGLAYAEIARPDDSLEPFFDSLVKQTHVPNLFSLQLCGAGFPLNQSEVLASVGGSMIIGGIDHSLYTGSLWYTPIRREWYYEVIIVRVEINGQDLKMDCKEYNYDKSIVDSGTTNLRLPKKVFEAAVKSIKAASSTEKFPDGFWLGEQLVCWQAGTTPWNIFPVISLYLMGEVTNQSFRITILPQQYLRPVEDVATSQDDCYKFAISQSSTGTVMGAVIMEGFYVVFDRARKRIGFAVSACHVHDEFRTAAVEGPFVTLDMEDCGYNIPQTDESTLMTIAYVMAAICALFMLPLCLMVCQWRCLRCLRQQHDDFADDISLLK
Assay: BACE FS1% Inhibition Assay
Type: biochemical
Settings: 10 μM test compound; FS1 substrate; read-out: % Inhibition (FS) 10 μM
ASSAY METRIC: inhibition at 10 µM (%)

CCCCS(=O)(=O)NCCN1Cc2cc(Oc3ccccc3)ccc2N=C1N = 118
CN(C(=O)c1ccc2c(c1)C(N1Cc3cc(Oc4ccccc4)ccc3N=C1N)c1ccccc1-2)C1CCCCC1 (stereo not shown) = 80
CN(C(=O)CCC(c1ccccc1)N1Cc2cc(Oc3ccccc3)ccc2N=C1N)C1CCCCC1 (stereo not shown) = 104
CN(C(=O)CCCC(c1ccccc1)N1Cc2cc(Oc3ccccc3)ccc2N=C1N)C1CCCCC1 (stereo not shown) = 107

FYI, the data here is from patent US8383637B2.
